B1: TPR t1 (parent)
chain: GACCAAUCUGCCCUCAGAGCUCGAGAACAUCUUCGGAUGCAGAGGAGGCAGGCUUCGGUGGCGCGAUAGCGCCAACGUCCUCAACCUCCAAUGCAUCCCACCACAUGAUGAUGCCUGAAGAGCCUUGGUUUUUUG

- Variants of: B1
- protocol_notes: polymerase ribozyme fitness, log enrichment relative to wild type (log ratio); higher = more active; in vitro selection for triplet polymerase activity
attribute_measured: polymerase ribozyme fitness (log ratio)
# print the numeric value only

INSERT INTO assay_data (residue_codes, number) VALUES
  ('GACCAAUCUGCCCUCAGAGCUCGAGAACAUCUUCGGAUGCAGAGGAUGCAGGCUUCGGUGGCGCGAUAGCGUCAACGUCCUCAACCUCCAAUGAAUCCCACCACAUGAUGAUGCCUGAAGAGCCUUGGUUUUUUG', -2.85),
  ('GACCAAUCUGCCCUCAGAGCUCGAGAACAUCUUCGGAUGCAGAGGAGGCAGGCUUCGGUGGCGCGAUAGCGCCUACGUCCUCAACCUCCAAUGCAUCCCACCAAAUGAUGAUGCCUGAAGAGCGUUGGUUUUUUG', 0.0488),
  ('GGCCAAUCUGCCCUCAGAUCUCGAGAACAUCUUCGGAUGCAGAGGAGGCAGGCUUCGGUGGUGCGAUAGCGCCAACGUCCUCAACUUCCAAUGCAUCCCACCACAUGAUGAUGCCUGAAGAGCCUUGGUUUUUUG', -3.94),
  ('GACCAAUCUGCCCUCAGAGCUCGAGAACAUCUUCGGAUGCAGAGGAGGCAGUCAUCGGUGGCACGAUAGCGCCAACGUCCUCAACCUCCAAUGCAUCCCACCACAUGAUGAUGCAUGAAGAGCCUUGGUUUUUUG', -0.839),
  ('GACCAAUCUGCGCUCAGAGCUCGAGAACAUCUUCGGCUGCUGAGGAGGCAGGCUUCGGUGGCGCGAUAGCGCCAACGUACUCAACCUCCAAUGCAUCCCACCACAUGAUGAUGCCUGAAGAGCCUUGGUUUUUUG', -3.13),
  ('GACCAAUCUGCCCUCAGAGCUCGAGAACAUCUUUGGAUGCAGAGGAGGCAGGCUUCGGGGGCGCGAUAGCGCCAACGUCCUCAACCUCCAAUGCAUCCCACCACAUGAUGAUGCCUGAAGCGCGUUGGUUUUUUG', -3.59),
  ('GACCAAUCUGCCCUCAGAGCUCGAGAACAUCUUCGGAUGCAGAGGAGGCAGGCUUCGGUGGCACGAUAGCGCCAACGUCCUCAACCUCCAAUGCAUCCCACCACAUGAUGAUGCCUGAAGAGGCUUGGUUUUUUG', 0.797),
  ('GACCAAUCUGCCCUCAGAGCUCGAGAACAUCUUCGGAUGCAGAGGAGGCAGUCUUCGGUGGAGCGAUAGCGCCAACGUCCUCAACCUCCAAUGCAUCCCACCACAUGAUGAUGCCUGAAGAGCCUUGGUUUUUUG', -2.89);

**Q:** Form field: reported polymerase ribozyme fitness (log ratio) of GACCAAUCUGCCCUCAGAGCUAGAGAACAUCUUCGGAUGCAGAGGAGGCAGGCUUCGGUGGCGCGAUAGCGCCAACGUCCUCAACCUCCAAUGCAUCCCACCACAUGAUGAUGCCUGAAGAGCCUUGGGUUUUUG
**A:** -6.22

**Q:** Form field: reported polymerase ribozyme fitness (log ratio) of GACCCAUCUGCCCUCAGAGCUCGAGAACAUCUUCGGAUGCAGAGGAGCCAGGCUUCGGUGGCGCGAUAGCGCCAACGACCUCAACCUCCAAUGCAUCCCACCACAUGAUGAUGCAUGAAGAGCCUUGGUUUUUUG
**A:** -2.4

**Q:** Form field: reported polymerase ribozyme fitness (log ratio) of GACCAAUUUGCCCUCAGAGCUCGAGAACAUCUUCGGAUGCAGAGGAGGCAGGCUUCGGUGGUGCGAUAGCGCCAACGUUCUUAACCUCCAUUGCAUCCCACCACGUGAUGAUGCCUGAAGAGGCUUGGGUGUUUG
**A:** -5.84

**Q:** Form field: reported polymerase ribozyme fitness (log ratio) of GACCAAUCUGCCCUCAGAGCUCGAGAACAUCUUCGGAUGCAGAGGAGGCAGGCUUCGGUGGCGCGAUAGCGCCAACGGCCUCAACCUCCACGGCAUCCCACCACAUGAUGAUGCCUGAAGAGCCUUGGUUUUUUG
**A:** -3.13

**Q:** Form field: reported polymerase ribozyme fitness (log ratio) of GACCAAUCUGCCCUCAGAGCUCGAGAACAUCUUCGGAUGCAGAGGAGGCAGGCUUCGGUGGCGCGAUAGCGCCAACGUCCUCCACCUCCAAUCCAUCCCACCACAUGAUGAUGCCUGAAGAGCCUUGGUUUUUUG
**A:** -0.701
